Documented kon across a set of binders
# assayed_system: HRgpA-6H (Porphyromonas gingivalis) (UniProt P28784)
# test: SPR Biacore 8K, 25 C; table lists HRgpA-6H as ligand, antibody as analyte
endpoint_label: kon (M⁻¹ s⁻¹)

[[record]]
binder = "KB001 (antibody, V domains shown) VH: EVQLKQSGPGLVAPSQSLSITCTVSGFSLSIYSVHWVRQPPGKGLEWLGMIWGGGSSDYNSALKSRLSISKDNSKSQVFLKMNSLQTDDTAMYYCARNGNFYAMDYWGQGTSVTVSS VL: QIVLTQSPAIMSASLGERVTMTCTASSSVSSSFLHWYQQKPGSSPQLWIYSTSNLASGVPARFSGSGSGTSYSLTISSMEAEDAATYYCHQYHHSPYIYTFGGGTKLEIKR"
endpoint_label = "kon"
unit = "M⁻¹ s⁻¹"
meas_value = 42600

[[record]]
binder = "H7 (antibody, V domains shown) VH: QVQLQESGPGLVKPSETLSLTCTVSGFSLSIYSVHWIRQPPGKGLEWIGMIWGGGSSDYNSALKSRLTISKDTSKNQVSLKLSSVTAADTAVYYCARNGNFYAMDYWGQGTLVTVSS VL: EIVLTQSPGTLSLSPGERATLSCTASSSVSSSFLHWYQQKPGQAPQLWIYSTSNLASGIPDRFSGSGSGTDYTLTISRLEPEDFATYYCHQYHHSPYIYTFGGGTKLEIK"
endpoint_label = "kon"
unit = "M⁻¹ s⁻¹"
meas_value = 41400


Value source: patent US20240400654A1
